Every entry's value here was drawn from PubChem BioAssay (NCI).

- Test system: OVCAR-3 ovarian
- experiment: NCI tumour cell line growth inhibition, 48 h
propertyName: TGI (µM)

| compound | units | resultComparator | measurement |
| --- | --- | --- | --- |
| CCn1c2ccccc2c2ccc(C3C(C(=O)OC)=C(C)NC(C)=C3C(=O)OC)cc21 | µM | > | 100 |
| CC(C)(C)C1=CC(=C2C=Cc3ccccc3O2)C=C(C(C)(C)C)C1=O | µM | = | 7.71 |
| COc1cc(-n2ccnc2)cc(OC)c1OC | µM | > | 100 |
| O=[N+]([O-])/C(C(Cl)=C(Cl)Cl)=C(\N1CCCCC1)n1nnc2ccccc21 | µM | = | 32.6 |
| CCOC(=O)/C(=C/c1ccc(N(CCC#N)CCC#N)cc1C)NC(=O)/C=C/c1ccccc1 | µM | > | 100 |
| c1ccc2c(c1)ccn1ccc3c4ccccc4nc-3c21 | µM | = | 2.92 |
| CC[P+]1(c2ccccc2)[C@@H](C)CC[C@@H]1C | µM | > | 100 |
| COc1c2c(cc3c1C1(O)Cc4ccc5c(c4C[N+]1(C)CC3)OCO5)OCO2 (stereo not given) | µM | > | 100 |
| Cc1ccc(NC(=O)/C(=N/N(C)C)C(C2OC(=O)c3ccccc32)[N+](=O)[O-])cc1 (stereo not given) | µM | > | 100 |
| CCN(CC)CCn1[nH]c2c3ccc(=O)cc3sc3c(NCCN)ccc1c32 | µM | = | 8.17 |
| Cc1ccc2[nH]c3[nH]c(=S)[nH]c(=O)c3c2c1 | µM | > | 100 |
| CC1=C(C)C2(O)C(=C(C)C1=O)/C(=C(/O)c1ccccc1)c1nc3ccccc3n12 (stereo not given) | µM | = | 38.6 |
| CC[N+](C)(CC)CC(C)(C)C(=O)/C=C/c1ccc(/C=C/C(=O)C(C)(C)C[N+](C)(CC)CC)cc1 | µM | > | 100 |
| CCC(O)c1ccc(N=Cc2ccccc2O)cc1 (stereo not given) | µM | > | 100 |
| CCOc1ccc(O)cc1[P+](c1ccccc1)(c1ccccc1)c1ccccc1 | µM | = | 11.4 |
| COc1ccc(/C=C\c2cc(OC)c(OC)c(OC)c2)cc1OCC(=O)Nc1ccc2nc(C)sc2c1 | µM | = | 69.2 |
| O=C(NCc1ccco1)c1cccc(NC2=C(Cl)C(=O)N(Cc3ccccc3)C2=O)c1 | µM | = | 7.71 |
| C[C@@H]1COCCN1c1cc(C2([S@@](C)(=N)=O)CC2)nc(-c2ccnc3[nH]ccc23)n1 | µM | > | 91.1 |
| O=C(Nc1nnc(-c2c(Cl)c(Cl)c(Cl)c(Cl)c2-c2nc3cc(C(=O)c4ccccc4)ccc3[nH]2)o1)c1ccc(Cl)cc1 | µM | = | 54.1 |
| O=c1cc(-c2ccccc2)oc2cc(OC/C(=N/O)c3ccc(F)cc3)ccc12 | µM | = | 35.6 |

----------
# GI50 per record follows
- System: EKVX NSCLC
- experiment: NCI tumour cell line growth inhibition, 48 h
propertyName: GI50

| compound | propertyName | measurement |
| --- | --- | --- |
| Cc1cn(-c2ccc(S(C)(=O)=O)cc2)c(-c2ccc(Cl)cc2)n1 | GI50 | > 100 µM |
| COc1cc(/C=C/c2cc(/C=C/c3ccc(O)c(OC)c3)n(C(=O)Nc3ccc(Cl)cc3)n2)ccc1O | GI50 | 1.61 µM |
| CCCCCCCC(=O)OCC(=O)[C@]1(O)Cc2c(O)c3c(c(O)c2[C@@H](OC2CC(N)C(O)C(C)O2)C1)C(=O)c1c(OC)cccc1C3=O (stereo not given in full) | GI50 | 0.236 µM |
| O=S(=O)(Nc1ccc(F)c(Cl)c1)c1ccc(-c2cnc(C3CC3)o2)cc1 | GI50 | 0.609 µM |
| O=C(CC(=O)c1cccc(Cl)c1)c1cccc(Cl)c1 | GI50 | 2.16 µM |

----------
- Tested on: BT-549 breast
- experiment: NCI tumour cell line growth inhibition, 48 h

| compound | GI50 |
| --- | --- |
| Cc1ccc(-c2nc([P+](c3ccccc3)(c3ccccc3)c3ccccc3)c(Nc3ccccc3)o2)cc1 | 1.53 µM |
| O=S(=O)(Nc1ccc(F)c(Cl)c1)c1ccc(-c2cnc(C3CC3)o2)cc1 | 0.577 µM |
| CC(=O)c1cc(C(=O)c2ccc3c(c2)Sc2ccccc2N3)c2c(C)cccn12 | 0.777 µM |
| O=C(/C=C/C12c3ccccc3C(c3ccccc31)C1C(=O)NC(=O)C12)c1ccc(Cl)cc1 (stereo unspecified) | 1.34 µM |
| O=C(Nc1cc(Oc2cc(F)c(NC(=O)C3(C(=O)Nc4ccc(F)cc4)CC3)cc2F)ccn1)C1CC1 | 3.07 µM |
| Cc1c(C(N)=O)sc2c1c(=O)n(Cc1ccccc1)c1nnc(-c3ccc(Br)cc3)n21 | 3.85 µM |

----------
# TGI per record follows
- Tested on: CAKI-1 renal
- experiment: NCI tumour cell line growth inhibition, 48 h
propertyName: TGI (µM)

| molecule | propertyName | resultComparator | measurement |
| --- | --- | --- | --- |
| Clc1ccccc1C(Nc1ncccn1)Nc1ncccn1 | TGI | > | 100 |
| NC(Cc1ncccn1)C(=O)O (stereo not drawn) | TGI | > | 100 |
| C#COc1cccc(Nc2ncnc3cc(NC(=O)[C@H](C)Cl)ccc23)c1 | TGI | > | 62.5 |
| Cc1cc(Cl)ccc1Nc1nc(C(F)(F)F)ccc1C(=O)N/N=C/c1ccccc1Cl | TGI | = | 7.72 |
| Cc1cccc(C)c1Nc1nc(C)c(C(=O)CC(=O)C(=O)Nc2c(C(C)C)cccc2C(C)C)s1 | TGI | > | 100 |
| Cc1ccc(S(=O)(=O)N/N=C2/CC3CCC4CC2CC34)cc1 (stereo not drawn) | TGI | > | 100 |
| CC(C)(C)OC(=O)c1cccnc1/C=N/O | TGI | > | 100 |
| C/C=C/COC(=O)CO[N+](=O)[O-] | TGI | > | 100 |
| Cc1cn(-c2ccc(S(C)(=O)=O)cc2)c(-c2ccc(Cl)cc2)n1 | TGI | > | 100 |
| CN1C(=O)CC2CCC(=O)N2c2cccnc21 (stereo not drawn) | TGI | > | 100 |
| COc1ccc(Nc2nc3cc(N)cc(N)c3nc2-c2ccccc2)cc1OC | TGI | = | 66 |
| CCCC1(CCC)c2cc(/C=N\O)ccc2-c2ccc(-c3ccc(C(C)(C)C)cc3)cc21 | TGI | > | 100 |
| Nc1nc(N)c2cc(Sc3cccc(C(F)(F)F)c3)ccc2n1 | TGI | = | 16.7 |
| c1ccc([As]=[As]c2ccccc2)cc1 (stereo not drawn) | TGI | = | 3.22 |
| O=C(OC/C=C1C=C(OC(=O)c2ccccc2)/C(=N/N(C(=O)c2ccccc2)c2ccccc2)O\1)c1ccccc1 | TGI | = | 13.7 |
| c1ccc2c(c1)ccn1ccc3c4ccccc4nc-3c21 | TGI | = | 2.09 |
| O=C(CCc1nnc2s/c(=C\c3ccccc3Cl)c(=O)n12)Nc1cc(Cl)ccc1Cl | TGI | > | 100 |
| COC(=O)/C=C(\S/C=C(/c1ccccc1)N1CCn2c(C(=O)c3ccccc3)c(C(=O)OC)c(C(=O)OC)c21)C(=O)OC | TGI | > | 10 |
| CC(=O)N(O)Cc1ccccc1 | TGI | > | 100 |
| COc1cc(/C=C/c2cc(/C=C/c3ccc(O)c(OC)c3)n(C(=O)Nc3ccc(Cl)cc3)n2)ccc1O | TGI | = | 36.6 |
| O=S(=O)(/N=C(\NO)Nc1ccc(Cl)cc1)c1ccccc1 | TGI | = | 23 |
| C=CCOC(=O)C1CCC(=O)N1C(=O)C(Cl)Cl (stereo not drawn) | TGI | > | 100 |
| CSCCCNC(=O)c1csc(-c2csc(CCNC(=O)CNC(=O)CNC(=O)OC(C)(C)C)n2)n1 | TGI | > | 100 |
| Nc1ccccc1C#C/C=C\C#Cc1c(F)c(F)c(F)c(F)c1F | TGI | = | 29.1 |
| CC(CN(C)C)C(=O)c1ccccc1 (stereo not drawn) | TGI | = | 15.6 |
| O=c1cc(-c2ccccc2)oc2cc(OC/C(=N/O)c3ccc(F)cc3)ccc12 | TGI | = | 38.6 |
| CCOC(=O)c1cc(C2CCN(c3ccccc3)C2=O)c(C(=O)/C=C(/C)N)[nH]1 (stereo not drawn) | TGI | = | 81.6 |
| CN(C)c1ccc(/C=c2/c3ccccc3n3c2c2cc(F)ccc2[n+]3C)cc1 | TGI | = | 29.4 |

----------
- System: HS 578T breast
- experiment: NCI tumour cell line growth inhibition, 48 h
// F strictly below 60 µM in TGI; T otherwise

| compound | cat |
| --- | --- |
| CCOC(=O)c1cnn2c3ccccc3n(S(=O)(=O)c3ccc(OC)cc3)c12 | T |
| COc1cccc(/C(C)=N/NC(=O)CSc2nc3ccccc3c(=O)n2CCc2ccc(S(N)(=O)=O)cc2)c1 | F |
| S=C(N1CCN(c2cccc(Cl)c2)CC1)N1CCN(c2cccc(Cl)c2)CC1 | T |
| N#CCN(CC#N)C1CC=CCC1N(CC#N)CC#N (stereo not given) | T |
| N#C/C(N)=C(\C#N)N=CNc1ccc(N)cc1 | T |
| COc1ccc(/C=C\c2cc(OC)c(OC)c(OC)c2)cc1OCC(=O)Nc1ccc2nc(C)sc2c1 | T |
| COc1ccc2c3c([nH]c2c1)CCN(Cc1ccccc1)C3 | F |
| CN(C)c1ccc(/C=c2/c3ccccc3n3c2c2cc(F)ccc2[n+]3C)cc1 | F |
